Listed next: entries and their corresponding phosphorylation enrichment.
System: Fer (mouse);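 further: 11-residue human phosphosite peptides and single-mutation variants displayed on the E. coli surface, counted by deep sequencing, each peptide's frequency after selection divided by its frequency in the unselected input library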;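 further: frequency after pTyr selection over input frequency; kinase dosed for 20-30% of maximal phosphorylation in three min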
Assay: phosphorylation enrichment, bacterial display (enrichment ratio); higher = better substrate or ligand; peptides without Tyr show the background
QUANTITY: phosphorylation enrichment

- MACROMOLECULE SEQUENCE: "ALKKPYSVLFK [RPF2_Y59_G60S_YF]"
  OBSERVED VALUE: 0.502
- MACROMOLECULE SEQUENCE: "CTLLPYFSAPV [DGKE_Y269_R273P_YF]"
  OBSERVED VALUE: 0.493
- MACROMOLECULE SEQUENCE: "GIATGYLVLKE [DNMT3B_Y588]"
  OBSERVED VALUE: 0.376
- MACROMOLECULE SEQUENCE: "PVDVAYRHGYF [PLEC_Y2967_R2969H]"
  OBSERVED VALUE: 0.543
- MACROMOLECULE SEQUENCE: "FQQLFYLLQIN [IQGAP2_Y890_T894I_YF]"
  OBSERVED VALUE: 0.658
- MACROMOLECULE SEQUENCE: "LARDMDDKEFF [MET_Y1230_Y1230D_YF]"
  OBSERVED VALUE: 0.428
- MACROMOLECULE SEQUENCE: "IGEGTYGQVYK [CDK13_Y716]"
  OBSERVED VALUE: 0.813
- MACROMOLECULE SEQUENCE: "ECKLRYSRKEG [PTPN11_Y263_L262R]"
  OBSERVED VALUE: 0.376
- MACROMOLECULE SEQUENCE: "WVFNHYRCIIW [BRCA2_Y2624_W2626C_YF]"
  OBSERVED VALUE: 0.589
- MACROMOLECULE SEQUENCE: "QFKDKYLAKHN [CASK_Y712_YF]"
  OBSERVED VALUE: 0.433
- MACROMOLECULE SEQUENCE: "NFFDTYIKTCL [IQGAP2_Y1445_YF]"
  OBSERVED VALUE: 0.555
- MACROMOLECULE SEQUENCE: "NVADHYRVFKP [ATP6V0D2_Y271_G272R_YF]"
  OBSERVED VALUE: 0.404
- MACROMOLECULE SEQUENCE: "IGGHAYGDQFR [IDH1_Y135_R132G_YF]"
  OBSERVED VALUE: 0.259
- MACROMOLECULE SEQUENCE: "CTTIHYSYMCN [TP53_Y234_N235S]"
  OBSERVED VALUE: 1.01
- MACROMOLECULE SEQUENCE: "FGDTPYIPFRD [CDC14C_Y132]"
  OBSERVED VALUE: 0.542
- MACROMOLECULE SEQUENCE: "LSGVIYVILWK [PMP22_Y153_R157W]"
  OBSERVED VALUE: 0.583
- MACROMOLECULE SEQUENCE: "CTTIHYIYMCN [TP53_Y234_N235I]"
  OBSERVED VALUE: 0.478
- MACROMOLECULE SEQUENCE: "LEGKEYRMSGE [KRT3_Y511_E509K]"
  OBSERVED VALUE: 0.455
- MACROMOLECULE SEQUENCE: "SQSKGYRPKLF [SIPA1L3_Y1376_G1371S_YF]"
  OBSERVED VALUE: 0.368
- MACROMOLECULE SEQUENCE: "PTTKTYFPRFD [HBA1_Y43_H46R]"
  OBSERVED VALUE: 0.505
- MACROMOLECULE SEQUENCE: "VATSWYRSPEL [CDKL5_Y177_R175S]"
  OBSERVED VALUE: 0.409
- MACROMOLECULE SEQUENCE: "KQLYAYKMLMA [TMC2_Y209]"
  OBSERVED VALUE: 0.384
- MACROMOLECULE SEQUENCE: "SLIERYEPSET [PLCD1_Y258]"
  OBSERVED VALUE: 0.574
- MACROMOLECULE SEQUENCE: "VVEFGYEFFAK [PPP1CB_Y254_D252Y_YF]"
  OBSERVED VALUE: 0.553
- MACROMOLECULE SEQUENCE: "RKLVDYDSARH [BIN1_Y150]"
  OBSERVED VALUE: 0.565
- MACROMOLECULE SEQUENCE: "ANQDDYISFRH [IMP4_Y226]"
  OBSERVED VALUE: 0.357
- MACROMOLECULE SEQUENCE: "ENEGTYVCIAT [ADAMTSL3_Y1365]"
  OBSERVED VALUE: 1.3
- MACROMOLECULE SEQUENCE: "MNLLGYRQVRS [CHST4_Y359_H361Q]"
  OBSERVED VALUE: 0.359
- MACROMOLECULE SEQUENCE: "QPSPSYDSSRG [TCF12_Y70]"
  OBSERVED VALUE: 0.457
- MACROMOLECULE SEQUENCE: "QAEELYFGKMG [YES1_Y159_W158L]"
  OBSERVED VALUE: 0.747
